- target-of-assay: T1, human G-protein-coupled receptor family C group 5 member D (GPRC5D) (human, UniProt Q9NZD1 1-345)
- T1 construct: whole, on cells; also called human GPRC5D protein
- T1 sequence (Q9NZD1 whole entry): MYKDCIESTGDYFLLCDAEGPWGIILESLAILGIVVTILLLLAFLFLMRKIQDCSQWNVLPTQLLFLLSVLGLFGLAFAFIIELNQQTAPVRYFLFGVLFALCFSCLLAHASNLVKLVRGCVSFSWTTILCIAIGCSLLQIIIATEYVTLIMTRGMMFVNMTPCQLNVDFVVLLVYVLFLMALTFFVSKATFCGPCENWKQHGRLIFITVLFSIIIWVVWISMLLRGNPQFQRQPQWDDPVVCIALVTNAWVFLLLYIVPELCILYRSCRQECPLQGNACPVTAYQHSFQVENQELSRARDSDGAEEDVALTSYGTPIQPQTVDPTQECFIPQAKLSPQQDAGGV
- procedure-summary: FACS, CHO-K1/human GPRC5D, hybridoma supernatant
Entries and their LogEC50
The response must contain the number and no unit.

// recorded LogEC50 for 6G10D9 (antibody, V domains shown, murine antibody from hybridoma supernatant) VH: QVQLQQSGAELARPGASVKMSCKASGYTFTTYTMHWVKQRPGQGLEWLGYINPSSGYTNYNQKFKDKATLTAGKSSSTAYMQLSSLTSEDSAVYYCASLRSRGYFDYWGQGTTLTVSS VL: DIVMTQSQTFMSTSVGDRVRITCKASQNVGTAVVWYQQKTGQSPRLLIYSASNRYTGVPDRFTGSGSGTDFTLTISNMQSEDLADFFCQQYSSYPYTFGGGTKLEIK : 0.912

Data point: 58F9G10 (antibody, V domains shown, murine antibody from hybridoma supernatant) VH: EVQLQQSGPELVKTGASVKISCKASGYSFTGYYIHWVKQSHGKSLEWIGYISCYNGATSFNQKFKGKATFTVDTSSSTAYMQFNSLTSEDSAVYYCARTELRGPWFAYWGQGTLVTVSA VL: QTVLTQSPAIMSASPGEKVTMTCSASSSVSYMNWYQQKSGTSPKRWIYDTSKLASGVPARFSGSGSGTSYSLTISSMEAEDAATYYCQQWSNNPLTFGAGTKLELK ; LogEC50 = 0.964

Quick note, LogEC50 for 14C2A11C6 (antibody, V domains shown, murine antibody from hybridoma supernatant; also called 14C2A1106) VH: QVHLQQSGAELARPGASVKMSCKASGYTFTTYTMHWVKQRPGQGLEWIGYINPNSAYTNYNQKFKDKATLTADKSSSTAYMQLSSLTSEDSAVYYCARRVLLLRVLDFFDYWGQGTTLTVSS VL: DVQITQSPSYLAASPGETITINCRASKSINKYLTWYQEKPGKTNKLLIYSGSTLQSGIPSRFSGSGSGSDFTLTISSLEPEDFAMYYCQQHNEYPLTFGTGTKLELK landed at 0.993

LogEC50 reading for 26E1D12 (antibody, V domains shown, murine antibody from hybridoma supernatant) VH: EVQLQQSGPELVKPGASMKISCKASGYSFTGYTMNWVKQSHGKNLEWIGLINPYNGGTNYNQKFKGKATLAVDKSSSTAYMDLLSLTSEDSAVYYCSRWGLRRAMDYWGQGTSVTVSS VL: DIVMTQSQKFMSTSVGDRVSVTCKASQNVGSNVAWYQQKPGQSPKALIYSASYRYSGVPDRFTGSGSGTDFTLTISNVQSEDLAEYFCQQYNNSPWTFGGGTKLEIK : 0.225

The reported value for 38A10E9A11 (antibody, V domains shown, murine antibody from hybridoma supernatant) VH: QVQLQQSGAELARPGASVKMSCKASGYTFTTYTMHWVKQRPGQGLEWIGYINPSSGYTNYNQKFKDKATLTAGKSSSTAYMQLSSLTSEDSAVYYCASLRSRGYFDYWGRGTTLTVSS VL: DIVMTQSQKFLSTSVGDRVSITCKASQNVGTAVAWYQQKPGQSPKLLIYSASNRYTGVPDRFTGSGSGTDFTLTISNMQSEDLAGYFCQQYSSYPYTFGGGTKLEIK in terms of LogEC50 is 0.947
